- Tested on: anti-pregabalin antibody
- Procedure text: Specificity of the homogeneous enzyme immunoassay (cross-reactivity)
- Format: binding, rabbit
- Study conditions: compound at 200 μg/mL added to pooled pregabalin-free human urine; Siemens Viva-E System

Molecule | Target or system | % Crossreactivity / %
O=C(O)[C@@H]1CCCN1 [L-Proline] | anti-pregabalin antibody | 0.004
N[C@@H](Cc1ccc(O)cc1)C(=O)O [L-Tyrosine] | anti-pregabalin antibody | 0.004
NC(=O)C[C@H](N)C(=O)O [L-Asparagine] | anti-pregabalin antibody | 0.004
N[C@@H](CS)C(=O)O [L-Cysteine] | anti-pregabalin antibody | 0.005
NCC(=O)O [L-Glycine] | anti-pregabalin antibody | 0.005
N[C@@H](CCC(=O)O)C(=O)O [L-Glutamic Acid] | anti-pregabalin antibody | 0.006
N[C@@H](CO)C(=O)O [L-Serine] | anti-pregabalin antibody | 0.005
CC[C@H](C)[C@H](N)C(=O)O [L-Isoleucine] | anti-pregabalin antibody | 0.008
N=C(N)NCCC[C@H](N)C(=O)O [L-Arginine] | anti-pregabalin antibody | 0.006
